Numbers sourced from the pKa sets of Baltruschat and Czodrowski (2020).

EXPERIMENTAL READOUT: pKa
Quick one: just the number, no unit, thanks!

Record excerpt, results attached:
INSERT INTO results (compound, experimental_readout, recorded_value) VALUES
  ('CC(C)(C)NCC(O)COc1cccc2c1C[C@H](O)[C@H](O)C2 (some centres undefined)', 'pKa', 9.67),
  ('COc1ccc2c3c1O[C@H]1[C@@H](O)C=C[C@H]4[C@@H](C2)N(C)CC[C@@]341', 'pKa', 8.2),
  ('CC(C)NCC(O)COc1ccc(COCCOC(C)C)cc1 (centres undefined)', 'pKa', 9.57);

Consider the additional compound presented here.
Query block: Query (compound): "COc1ccc2c(c1)N(C[C@H](C)CN(C)C)c1ccccc1S2" ; field requested: pKa
Result block: 9.19

---

EXPERIMENTAL READOUT: pKa
Quick one: just the number, no unit, thanks!

INSERT INTO assay_data (compound, recorded_value) VALUES
  ('O=c1n(CCCN2CCN(c3cccc(Cl)c3)CC2)nc2ccccn12', 6.79),
  ('Cc1ccc(O)c([C@@H](CCN(C(C)C)C(C)C)c2ccccc2)c1', 9.8),
  ('O=C(NCC1CCCCN1)c1cc(OCC(F)(F)F)ccc1OCC(F)(F)F (stereo not given)', 9.3),
  ('Cc1ccccc1OCC(O)CNCCOc1ccc(C(N)=O)cc1 (stereo not given)', 7.9),
  ('CNCCC=C1c2ccccc2CCc2ccccc21', 10.1),
  ('CC(CN(C)C)CN1c2ccccc2CCc2ccccc21 (stereo not given)', 9.24);

Query block: Query (compound): OC(CNCC(O)C1CCc2cc(F)ccc2O1)C1CCc2cc(F)ccc2O1 (stereo not given) ; field requested: pKa
Result block: 8.22

Query block: Query (compound): CC(CCc1ccccc1)NCC(O)c1ccc(O)c(C(N)=O)c1 (stereo not given) ; field requested: pKa
Result block: 7.4

Query block: Query (compound): "COc1ccc([C@@H]2Sc3ccccc3N(CCN(C)C)C(=O)[C@@H]2OC(C)=O)cc1" ; field requested: pKa
Result block: 8.06

---

Note to self: values exactly at 9 are T. So pKa at or above 9 is T, below is F.

INSERT INTO results (compound, answer_label) VALUES
  ('CN(C)CCCN1c2ccccc2Sc2ccccc21', 'T'),
  ('CNCCCC12CCC(c3ccccc31)c1ccccc12', 'T');

Query block: Assess whether reported pKa for CN1CCCC(n2nc(Cc3ccc(Cl)cc3)c3ccccc3c2=O)CC1 (stereo unspecified) sits at 9 or higher.
Result block: T

Query block: Assess whether reported pKa for CC(C)(C)NCC(O)c1cc(O)cc(O)c1 (stereo unspecified) sits at 9 or higher.
Result block: F

Query block: Assess whether reported pKa for CC(C)NCC(O)c1ccc(NS(C)(=O)=O)cc1 (stereo unspecified) sits at 9 or higher.
Result block: T

Query block: Assess whether reported pKa for "CNS(=O)(=O)Cc1ccc2[nH]cc(CCN(C)C)c2c1" sits at 9 or higher.
Result block: T

Query block: Assess whether reported pKa for "CNCC[C@@H](Oc1ccccc1C)c1ccccc1" sits at 9 or higher.
Result block: T

Query block: Assess whether reported pKa for "CCc1nn(CCCN2CCN(c3cccc(Cl)c3)CC2)c(=O)n1CCOc1ccccc1" sits at 9 or higher.
Result block: F

Query block: Assess whether reported pKa for "CN(C)CCCN1c2ccccc2CCc2ccc(Cl)cc21" sits at 9 or higher.
Result block: T
